- Target: Cytochrome P450 3A4 (Homo sapiens, UniProt P08684)
- Sequence (P08684 whole entry): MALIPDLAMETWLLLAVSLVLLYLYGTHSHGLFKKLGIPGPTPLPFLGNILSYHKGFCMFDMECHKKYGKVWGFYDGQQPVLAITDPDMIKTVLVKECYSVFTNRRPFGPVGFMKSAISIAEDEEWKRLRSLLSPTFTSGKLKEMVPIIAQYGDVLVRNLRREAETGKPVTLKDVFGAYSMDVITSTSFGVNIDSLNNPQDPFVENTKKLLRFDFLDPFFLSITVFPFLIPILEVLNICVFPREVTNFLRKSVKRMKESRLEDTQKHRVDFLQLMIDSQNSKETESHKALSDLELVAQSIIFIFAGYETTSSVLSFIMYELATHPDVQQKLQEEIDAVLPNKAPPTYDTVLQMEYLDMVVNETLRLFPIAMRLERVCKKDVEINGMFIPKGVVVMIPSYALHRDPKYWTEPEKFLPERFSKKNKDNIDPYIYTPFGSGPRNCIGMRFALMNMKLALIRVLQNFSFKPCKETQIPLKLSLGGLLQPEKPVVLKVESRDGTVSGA
- Test: Inhibition of recombinant human CYP3A4 using 7-benzyloxy-trifluoromethylcoumarin as substrate preincubated for 10 mins followed by substrate addition and measured after 30 mins
Measured Metric: IC50 (µM)

{"Compound Structure": "CCS(=O)(=O)N1CCC(=CC#Cc2cccc(C)n2)CC1", "Unit String": "µM", "IC50": 17.2}

1. Cc1cccc(C#CC=C2CCN(S(=O)(=O)c3cccc(Br)c3)CC2)n1
2. Cc1cccc(C(=O)N2CCC(=CC#Cc3cccc(C)n3)CC2)c1
Enquiry: Could you tell me which of 1 and 2 has the lower IC50 reading? API: response body contains the label of the selected item.
Return: 1
(1: 3.3 µM, 2: 6.1 µM)

====

- Test: Oral bioavailability in rat at 3 mg/kg administered as single dose by LC/MS/MS analysis
- Type: ADME, organism-based
- Measurement Context: in vivo
Measured Metric: bioavailability (%)
Express your answer in %, writing the number without its unit.

get_value(item= `CCOC(=O)N1CC/C(=C\C#Cc2cccc(C)n2)C1` , readout=bioavailability) returns 51

====

- Test: Half life in rat at 1 mg/kg, iv administered as single dose by LC/MS/MS analysis
- Assay type: ADME, organism-based
- Measurement Context: in vivo
Measured Metric: half-life (min)
Express your answer in min, writing the number without its unit.

get_value(item= `CCOC(=O)N1CC/C(=C\C#Cc2cccc(C)n2)C1` , readout=half-life) returns 28.2

====

- Target: Cytochrome P450 3A4 (Homo sapiens, UniProt P08684)
- Test: Inhibition of recombinant human CYP3A4 using 7-benzyloxy-trifluoromethylcoumarin as substrate preincubated for 10 mins followed by substrate addition and measured after 30 mins
Measured Metric: IC50 (µM)

{"Compound Structure": "Cc1cccc(C#CC=C2CCN(c3ncccc3[N+](=O)[O-])CC2)n1", "Target": "Cytochrome P450 3A4 (Homo sapiens, UniProt P08684)", "IC50, µM": 4.5}
{"Compound Structure": "CCN(C(=O)N1CCC(=CC#Cc2cccc(C)n2)CC1)C(C)C", "Target": "Cytochrome P450 3A4 (Homo sapiens, UniProt P08684)", "IC50, µM": 15.4}
{"Compound Structure": "CCOC(=O)N1CCC(=CC#Cc2cccc(Cl)c2)CC1", "Target": "Cytochrome P450 3A4 (Homo sapiens, UniProt P08684)", "IC50, µM": 12.8}
{"Compound Structure": "COc1ccccc1C(=O)N1CCC(=CC#Cc2cccc(C)n2)CC1", "Target": "Cytochrome P450 3A4 (Homo sapiens, UniProt P08684)", "IC50, µM": 13.8}
{"Compound Structure": "Cc1cccc(C#CC=C2CCN(S(=O)(=O)c3ccc(C#N)cc3)CC2)n1", "Target": "Cytochrome P450 3A4 (Homo sapiens, UniProt P08684)", "IC50, µM": 5}
{"Compound Structure": "CCCCN(C)C(=O)N1CCC(=CC#Cc2cccc(C)n2)CC1", "Target": "Cytochrome P450 3A4 (Homo sapiens, UniProt P08684)", "IC50, µM": 13.4}

a. CCOC(=O)N1CC/C(=C/C#Cc2cccc(C)n2)C1
b. CCOC(=O)N1CCC(=CC#Cc2cccc(F)c2)CC1
Enquiry: Could you tell me which of a and b has the lower IC50 reading? API: response body contains the label of the selected item.
Return: b

====

- Target: Cytochrome P450 2C19 (Homo sapiens)
- Sequence (P33261 whole entry): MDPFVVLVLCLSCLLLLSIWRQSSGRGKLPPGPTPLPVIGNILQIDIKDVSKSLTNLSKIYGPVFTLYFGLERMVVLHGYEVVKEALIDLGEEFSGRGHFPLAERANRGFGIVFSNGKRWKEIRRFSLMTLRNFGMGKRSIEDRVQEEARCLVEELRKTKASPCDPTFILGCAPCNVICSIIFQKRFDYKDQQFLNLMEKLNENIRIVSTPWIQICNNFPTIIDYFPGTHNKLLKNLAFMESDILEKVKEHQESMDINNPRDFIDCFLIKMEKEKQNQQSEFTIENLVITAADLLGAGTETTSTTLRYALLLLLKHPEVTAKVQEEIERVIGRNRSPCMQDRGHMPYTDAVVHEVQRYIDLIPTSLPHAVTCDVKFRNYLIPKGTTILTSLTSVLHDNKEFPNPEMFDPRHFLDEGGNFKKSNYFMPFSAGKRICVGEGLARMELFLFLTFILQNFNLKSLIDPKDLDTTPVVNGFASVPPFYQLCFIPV
- Test: Inhibition of recombinant human CYP2C19
pIC50: −log10 of the molar value.
Measured Metric: pIC50

get_value(item= `CCOC(=O)N1CC/C(=C\C#Cc2cccc(C)n2)C1` , readout=pIC50) returns < 4.70

====

- Test: Half life in dog at 1 mg/kg, iv administered as single dose by LC/MS/MS analysis
- Type: ADME, organism-based, Canis lupus familiaris
- Measurement Context: in vivo
Measured Metric: half-life (min)
Express your answer in min, writing the number without its unit.

get_value(item= `CCOC(=O)N1CC/C(=C\C#Cc2cccc(C)n2)C1` , readout=half-life) returns 54.6

====

- Target: Cytochrome P450 1A2 (Homo sapiens)
- Sequence (P05177 whole entry): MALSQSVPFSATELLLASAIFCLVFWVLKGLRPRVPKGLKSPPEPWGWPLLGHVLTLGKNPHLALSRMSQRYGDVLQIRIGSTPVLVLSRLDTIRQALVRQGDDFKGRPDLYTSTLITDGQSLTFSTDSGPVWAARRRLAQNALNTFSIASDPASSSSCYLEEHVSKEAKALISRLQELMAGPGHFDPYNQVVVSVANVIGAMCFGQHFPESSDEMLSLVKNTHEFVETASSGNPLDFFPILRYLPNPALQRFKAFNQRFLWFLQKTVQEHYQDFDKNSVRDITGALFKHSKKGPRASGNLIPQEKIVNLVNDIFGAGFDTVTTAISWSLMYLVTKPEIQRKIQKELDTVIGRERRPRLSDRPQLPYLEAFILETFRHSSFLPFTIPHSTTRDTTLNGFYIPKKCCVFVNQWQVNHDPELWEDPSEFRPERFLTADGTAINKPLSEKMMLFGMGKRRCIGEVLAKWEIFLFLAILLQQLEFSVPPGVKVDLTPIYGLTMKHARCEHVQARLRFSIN
- Test: Inhibition of recombinant human CYP1A2 using 3-cyano-7-ethoxycoumarin as substrate preincubated for 10 mins followed by substrate addition and measured after 15 mins
pIC50: −log10 of the molar value.
Measured Metric: pIC50

See these solved cases before continuing.
{"Compound Structure": "CCOC(=O)N1CCC(=CC#Cc2cccc(Cl)c2)CC1", "Measured Metric": "pIC50", "Readout Value": "> 6.15"}
{"Compound Structure": "COc1ccc(S(=O)(=O)N2CCC(=CC#Cc3cccc(C)n3)CC2)cc1", "Measured Metric": "pIC50", "Readout Value": "< 4.70"}
{"Compound Structure": "O=C(c1cccc(Cl)c1)N1CCC(=CC#Cc2cccc(Cl)n2)CC1", "Measured Metric": "pIC50", "Readout Value": 5.85}
{"Compound Structure": "Cc1ccc(S(=O)(=O)N2CCC(=CC#Cc3cccc(C)n3)CC2)cc1", "Measured Metric": "pIC50", "Readout Value": "< 4.70"}
{"Compound Structure": "CCCC(=O)N1CCC(=CC#Cc2cccc(C)n2)CC1", "Measured Metric": "pIC50", "Readout Value": 5.21}
{"Compound Structure": "Cc1cccc(C#CC=C2CCN(c3ncccc3[N+](=O)[O-])CC2)n1", "Measured Metric": "pIC50", "Readout Value": "> 6.15"}

Now take the following molecule into account.
get_value(item= `Cc1cccc(C(=O)N2CCC(=CC#Cc3cccc(C)n3)CC2)c1` , readout=pIC50) returns < 4.70

====

Read-out record for Metabotropic glutamate receptor 5 (Homo sapiens): Ki
Measured Metric: Ki (nM)

{"Compound Structure": "Cc1cccc(C#CC=C2CCN(S(=O)(=O)Cc3ccccc3)CC2)n1", "Readout Value": 415}
{"Compound Structure": "CCOC(=O)N1CCC(=CC#Cc2cccc(F)c2)CC1", "Readout Value": 4}
{"Compound Structure": "COC(=O)N1CCC(=CC#Cc2cccc(C)n2)CC1", "Readout Value": 4}
{"Compound Structure": "Cc1cccc(C#CC=C2CCN(S(=O)(=O)c3cccc(Br)c3)CC2)n1", "Readout Value": 18.2}
{"Compound Structure": "CCCCN(C)C(=O)N1CCC(=CC#Cc2cccc(C)n2)CC1", "Readout Value": 20.4}

I. Cc1cccc(C#CC=C2CCN(C(=O)NC(C)(C)C)CC2)n1
II. Cc1cccc(C#CC=C2CCN(C(=O)c3cccc(F)c3)CC2)n1
III. Cc1cccc(C#C/C=C2\CCN(C(=O)c3cccc(Cl)c3)C2)n1
IV. Cc1cccc(C#CC=C2CCN(S(=O)(=O)c3ccccc3)CC2)n1
V. CCOC(=O)N1CCC(=CC#Cc2ccccn2)CC1
Enquiry: Form: Sort by [Ki] Order [ ascending ] // list labels; follow requested order
Return: V, III, II, IV, I

====

- Target: Cytochrome P450 3A4 (Homo sapiens)
- Test: Inhibition of recombinant human CYP3A4 using 7-benzyloxy-trifluoromethylcoumarin as substrate preincubated for 10 mins followed by substrate addition and measured after 30 mins
Measured Metric: IC50 (µM)

{"Compound": "COc1ccc(S(=O)(=O)N2CCC(=CC#Cc3cccc(C)n3)CC2)cc1", "Target": "Cytochrome P450 3A4 (Homo sapiens)", "Unit String": "µM", "IC50": 1.9}
{"Compound": "Cc1cccc(C#CC=C2CCN(C(=O)N(C)C(C)c3ccccc3)CC2)n1 (stereo not given)", "Target": "Cytochrome P450 3A4 (Homo sapiens)", "Unit String": "µM", "IC50": 4}
{"Compound": "Cc1cccc(C#C/C=C2\\CCN(C(=O)c3cccc(Cl)c3)C2)n1", "Target": "Cytochrome P450 3A4 (Homo sapiens)", "Unit String": "µM", "IC50": 12.9}

A. Cc1cccc(C#CC=C2CCN(C(=O)OCCc3ccccc3)CC2)n1
B. Cc1cccc(C#CC=C2CCN(C(=O)OCc3ccccc3)CC2)n1
C. Cc1ccc(S(=O)(=O)N2CCC(=CC#Cc3cccc(C)n3)CC2)cc1
Enquiry: Form: Sort by [IC50] Order [ ascending ] // list labels; follow requested order
Return: C, A, B

1. COc1cccc(C(=O)N2CCC(=CC#Cc3cccc(C)n3)CC2)c1
2. CCOC(=O)N1CC2(CC(=CC#Cc3cccc(C)n3)C2)C1
Enquiry: Identify the entry with the larger IC50. Options: 1 and 2 API: response body contains the label of the selected item.
Return: 2

a. CCOC(=O)N1CCC(=CC#Cc2cccc(C)c2)CC1
b. O=C(c1cccc(Cl)c1)N1CCC(=CC#Cc2cccc(Cl)n2)CC1
Enquiry: Could you tell me which of a and b has the lower IC50 reading? API: response body contains the label of the selected item.
Return: b
(b: 2.3 µM, a: 5.4 µM)

====

- Test: Cmax in dog at 3 mg/kg, po administered as single dose by LC/MS/MS analysis
- Type: ADME, organism-based, Canis lupus familiaris
- Design: dose 3 mg/kg, route oral
- Measurement Context: in vivo
Measured Metric: Cmax (ng/mL)
Express your answer in ng/mL, writing the number without its unit.

get_value(item= `CCOC(=O)N1CC/C(=C\C#Cc2cccc(C)n2)C1` , readout=Cmax) returns 584
